System: PC-3 [JPC-3]
TEST_DESCRIPTION: relative viability (nuclei count vs DMSO), 5 days (fraction); higher = more cells survive
MEASUREMENT_SETUP: first compound 0.02 µM
Rule: relative viability below 0.8 gives 1 (yes). Equal to or above 0.8 gives 0 (no).

# MOLECULE, CLASSIFICATION
rows = [
    ("CN1CCN(CCOc2cc(OC3CCOCC3)c3c(Nc4c(Cl)ccc5c4OCO5)ncnc3c2)CC1 [Saracatinib] + CC(=O)Nc1cccc(-n2c(=O)n(C3CC3)c(=O)c3c(Nc4ccc(I)cc4F)n(C)c(=O)c(C)c32)c1 [Trametinib] (partner 0.02 µM)", "1 (yes)"),
    ("CCNC(=O)c1noc(-c2cc(C(C)C)c(O)cc2O)c1-c1ccc(CN2CCOCC2)cc1 [Luminespib] + COc1cccc2cc(-c3nc([C@H]4CC[C@H](C(=O)O)CC4)n4ncnc(N)c34)[nH]c12 [OSI-027] (partner 0.5 µM)", "1 (yes)"),
    ("CN1CCN(CCOc2cc(OC3CCOCC3)c3c(Nc4c(Cl)ccc5c4OCO5)ncnc3c2)CC1 [Saracatinib] + C[C@@H](Oc1cc(-c2cnn(C3CCNCC3)c2)cnc1N)c1c(Cl)ccc(F)c1Cl [Crizotinib] (partner 1 µM)", "0 (no)"),
    ("CCNC(=O)c1noc(-c2cc(C(C)C)c(O)cc2O)c1-c1ccc(CN2CCOCC2)cc1 [Luminespib] + C[C@]1(O)C[C@@H](c2nc(-c3ccc4ccc(-c5ccccc5)nc4c3)c3c(N)nccn32)C1 [Linsitinib] (partner 1 µM)", "0 (no)"),
    ("CCNC(=O)c1noc(-c2cc(C(C)C)c(O)cc2O)c1-c1ccc(CN2CCOCC2)cc1 [Luminespib] + CC(C)C[C@H](NC(=O)[C@H](Cc1ccccc1)NC(=O)c1cnccn1)B(O)O [Bortezomib] (partner 0.002 µM)", "0 (no)"),
    ("CCNC(=O)c1noc(-c2cc(C(C)C)c(O)cc2O)c1-c1ccc(CN2CCOCC2)cc1 [Luminespib] + CS(=O)(=O)N1CCN(Cc2cc3nc(-c4cccc5[nH]ncc45)nc(N4CCOCC4)c3s2)CC1 [Pictilisib] (partner 1 µM)", "1 (yes)"),
    ("CCNC(=O)c1noc(-c2cc(C(C)C)c(O)cc2O)c1-c1ccc(CN2CCOCC2)cc1 [Luminespib] + CC1(C)CCC(c2ccc(Cl)cc2)=C(CN2CCN(c3ccc(C(=O)NS(=O)(=O)c4ccc(N[C@H](CCN5CCOCC5)CSc5ccccc5)c(S(=O)(=O)C(F)(F)F)c4)cc3)CC2)C1 [Navitoclax] (partner 0.5 µM)", "1 (yes)"),
]

----------
Known relative viability of a selection of compounds
Tested on: EKVX
TEST_DESCRIPTION: relative viability (nuclei count vs DMSO), 5 days (fraction); higher = more cells survive
MEASUREMENT_SETUP: first compound 2.53 µM

# COMPOUND, relative viability
measured = [
    ("Nc1cccc2c1CN(C1CCC(=O)NC1=O)C2=O (centres undefined) [Lenalidomide] + Cc1cc(Nc2cc(N3CCN(C)CC3)nc(Sc3ccc(NC(=O)C4CC4)cc3)n2)n[nH]1 [Tozasertib] (partner 0.1 µM)", 0.415),
    ("Nc1cccc2c1CN(C1CCC(=O)NC1=O)C2=O (centres undefined) [Lenalidomide] + C[C@]1(O)C[C@@H](c2nc(-c3ccc4ccc(-c5ccccc5)nc4c3)c3c(N)nccn32)C1 [Linsitinib] (partner 1 µM)", 1.19),
    ("Nc1cccc2c1CN(C1CCC(=O)NC1=O)C2=O (centres undefined) [Lenalidomide] + O=C(CCCCCCC(=O)Nc1ccccc1)NO [Vorinostat] (partner 1 µM)", 0.954),
    ("Nc1cccc2c1CN(C1CCC(=O)NC1=O)C2=O (centres undefined) [Lenalidomide] + O=C(c1cc(Cc2n[nH]c(=O)c3ccccc23)ccc1F)N1CCN(C(=O)C2CC2)CC1 [Olaparib] (partner 8 µM)", 0.87),
]
